Data provenance: the supplement of paper PMC8728848

- experimental_target: Neu5Gc(a2-8)Neu5Gc(a2-3)Gal(b1-4)GlcNAc(b1-3)Gal(b1-4)GlcNAc
- assay_protocol: glycan array binding signal (z-score within array); higher = stronger binding
- condition_details: glycan notation: IUPAC condensed, linker removed
The entries come from a sample that favours the strongest signals as a whole.
Entries and their measured glycan array binding signal (z-score) follow.
outcome_measure: glycan array binding signal (z-score)

>>> test_value("AMA (Arum maculatun) (protein) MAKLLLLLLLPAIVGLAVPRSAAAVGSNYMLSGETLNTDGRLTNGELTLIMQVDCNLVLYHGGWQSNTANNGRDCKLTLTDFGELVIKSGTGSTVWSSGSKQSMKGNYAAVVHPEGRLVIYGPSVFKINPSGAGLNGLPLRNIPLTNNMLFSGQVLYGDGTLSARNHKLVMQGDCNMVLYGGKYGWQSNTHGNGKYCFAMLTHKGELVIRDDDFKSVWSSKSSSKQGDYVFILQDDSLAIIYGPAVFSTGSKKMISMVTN")
-0.215
>>> test_value("Cohesin-hDECTIN-1 (Homo sapiens) (protein) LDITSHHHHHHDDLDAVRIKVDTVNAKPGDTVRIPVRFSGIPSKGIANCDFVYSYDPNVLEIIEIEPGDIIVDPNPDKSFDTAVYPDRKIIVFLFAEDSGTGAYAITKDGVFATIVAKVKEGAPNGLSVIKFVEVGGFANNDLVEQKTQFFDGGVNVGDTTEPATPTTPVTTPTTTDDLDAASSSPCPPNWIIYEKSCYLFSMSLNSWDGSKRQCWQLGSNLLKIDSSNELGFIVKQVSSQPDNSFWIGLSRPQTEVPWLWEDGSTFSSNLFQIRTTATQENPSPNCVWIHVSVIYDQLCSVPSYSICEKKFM")
-0.091
>>> test_value("NPA (Narcissus pseudonarcissus), C0HM45 (protein) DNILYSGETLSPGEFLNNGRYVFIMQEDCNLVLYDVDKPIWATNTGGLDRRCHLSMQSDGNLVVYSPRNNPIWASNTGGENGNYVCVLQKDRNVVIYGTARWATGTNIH")
-0.146
